Test system: SK-MEL-28 melanoma
Assay: NCI-60 one-dose screen, 48 h
Conditions: 10 µM unless noted
This is part of a sample that, as a whole, favours compounds with a hit. Of some 83,000 tested, about 20% had one in any assay. Activity calls are given as the source filed them. The calls were made as follows: active = growth percent below 10; inactive = the rest.
Log the outcome using a class from Y for active, N for inactive

Recorded results for 3 compounds are shown here.
> print(dat)
                                   compound  class.assignment
1  COc1cccc(NC(=O)Nc2ccc(Nc3ncnc4sc5c(c34)CCN(C(=O)CCl)C5)cc2)c1                 N
2  CCCCn1c(C)nc2ccc(Nc3nc(N4CCN(C)CC4)nc4nc[nH]c34)cc21                 N
3  COc1ccc(COc2cc3oc(=O)c4cc(C(C)O)ccc4c3cc2OC)cc1 (centres undefined)                 N

What did the test return for "O=C(Nc1nc2cccc(-c3ccc(CN4CCS(=O)(=O)CC4)cc3)n2n1)C1CC1" ? N

Please answer likewise for "C[C@@H](Oc1cc(C(=O)Nc2ccc(C(=O)N3CCN(C)CC3)cc2)nnc1N)c1c(Cl)ccc(F)c1Cl" N

Please answer likewise for "CCCCCCCC(=O)SCC/C=C/[C@@H]1CC(=O)NCc2cc(ccn2)C2=N[C@@](C)(CS2)C(=O)N[C@@H](C(C)C)C(=O)O1" Y

---

System: PC-3 prostate
Test: NCI-60 one-dose screen, 48 h (100 = growth as untreated, 0 = no growth, -100 = all killed)
Settings: 10 µM unless noted
The panel holds about 83,000 compounds, 20% with a hit somewhere; the sample as a whole holds those more often.
Please go through the items and note down their growth.
One number for each entry, in %.

Past entries and their recorded results:
> print(dat)
                                   compound  measured.value
1  CCOC(=O)C1=C(C)NC(=O)NC1c1cc(=O)oc2ccc(C)cc12 (stereo not given)            97.2
2  CC(=O)C(C(C)=O)C(c1ccccc1)C(C(C)=O)C(C)=O            89.8
3    COc1ccc(-c2nc(N)ncc2Oc2ccccc2OC)c(O)c1              31
4  CCNC(=O)Nc1nc2ccc(Oc3ccnc(C(=O)NC)c3)cc2s1            76.1

Now take the following compound into account.
What measured growth goes with CCCC(=O)OCC1OC(n2cnc3c(=S)nc(N)[nH]c32)C(OC(=O)CCC)C1OC(=O)CCC (stereo not given) ? 76.1

---

Please go through the items and note down their growth.
System: KM12 colon
Test: NCI-60 one-dose screen, 48 h (100 = growth as untreated, 0 = no growth, -100 = all killed)
Conditions: 10 µM unless noted
The panel holds about 83,000 compounds, 20% with a hit somewhere; the sample as a whole holds those more often.
One number for each entry, in %.

> print(dat)
                                   compound  measured.value
1  [2H]C1([2H])[C@H](C)O[C@H](C)C([2H])([2H])N1c1ccc(NC(=O)c2cccc(-c3ccc(OC(F)(F)F)cc3)c2C)cn1            73.2

Hi! Can you tell me growth for each of these compounds?
1. CCCCN1C(=O)c2cccc3c(-c4ccc5c(c4)ncn5C4CCCCC4)ccc(c23)C1=O
2. COc1cc2ncnc(Nc3ccc(O)cc3)c2cc1OC
3. Cc1ccsc1C(NC(=O)c1ccccc1)c1cc(Cl)c2cccnc2c1O (stereo not given)
4. CN1C/C=C\CCOc2cccc(c2)-c2ccnc(n2)Nc2cccc(c2)C1
5. CC1(O)CCC(Nc2cc(-c3ccc(C(F)(F)F)cc3)c(C#N)c3nc4ccccc4n23)CC1 (stereo not given)

[92.2, 89.7, 22, -53.3, 68.7]

Hi! Can you tell me growth for each of these compounds?
1. CC(=O)C1CC(C)CCC1C(C)C (stereo not given)
2. Cn1cc(-c2ccc(F)c(C(F)(F)F)c2)nc1C1CCN(c2ncnc3[nH]ncc23)CC1
3. COc1cc2nccc(Oc3ccc(NC(=O)Nc4cc(C)on4)c(Cl)c3)c2cc1OC

[98, 73.5, 11.4]

Hi! Can you tell me growth for each of these compounds?
1. O=C1CC(c2cccc(F)c2)c2c(n[nH]c2-c2ccc(Cl)cc2)N1 (stereo not given)
2. CCNC(=O)Nc1nc2ccc(Oc3ccnc(C(=O)NC)c3)cc2s1
3. Clc1nc(Cl)c2ncn(CC#CCn3cnc4c(Cl)nc(Cl)nc43)c2n1

91.7
33.4
-45.8

Hi! Can you tell me growth for each of these compounds?
1. O=C(NC1CCNCC1)c1[nH]ncc1NC(=O)c1c(Cl)cccc1Cl
2. C1=C\COCc2cc(ccc2OCCN2CCCC2)Nc2nccc(n2)-c2cccc(c2)COC/1

[8.2, -9.97]

Hi! Can you tell me growth for each of these compounds?
1. Cc1cc(Nc2ncc(Cl)c(Nc3ccccc3S(=O)(=O)C(C)C)n2)c(OC(C)C)cc1C1CCNCC1
2. Nc1c(Cl)cccc1[N+](=O)[O-]

1: -95.8; 2: 107

Hi! Can you tell me growth for each of these compounds?
1. CC(C)(C)c1nc(-c2cccc(NS(=O)(=O)c3c(F)cccc3F)c2F)c(-c2ccnc(N)n2)s1
2. COc1cc2c(cc1OCCCCN1CCN(CC(=O)Nc3ccc(Cl)cc3C(=O)c3ccccc3Cl)CC1)N=CC1CCCN1C2=O (stereo not given)
3. Cc1ccc(N=C2CSc3nnc(-c4csc5c4CCCC5)n3N2)cc1
4. Cc1cc(C(O)CN(C)C)cc2c1ccc1cc(C(C)C)ccc12 (stereo not given)

1: 44.6; 2: -55.5; 3: 24; 4: -95.5

meta.source: PubChem BioAssay (NCI)
